We begin with a simple list: items and their reported human MASP2 IC50.
- target.system: Recombinant human MASP2 enzyme (fragment corresponding to amino acids 297-686, C-terminal His Tag) (human, UniProt O00187 297-686)
- Sequence (O00187 other isoform, or with tags, fused parts or gaps limits assumed): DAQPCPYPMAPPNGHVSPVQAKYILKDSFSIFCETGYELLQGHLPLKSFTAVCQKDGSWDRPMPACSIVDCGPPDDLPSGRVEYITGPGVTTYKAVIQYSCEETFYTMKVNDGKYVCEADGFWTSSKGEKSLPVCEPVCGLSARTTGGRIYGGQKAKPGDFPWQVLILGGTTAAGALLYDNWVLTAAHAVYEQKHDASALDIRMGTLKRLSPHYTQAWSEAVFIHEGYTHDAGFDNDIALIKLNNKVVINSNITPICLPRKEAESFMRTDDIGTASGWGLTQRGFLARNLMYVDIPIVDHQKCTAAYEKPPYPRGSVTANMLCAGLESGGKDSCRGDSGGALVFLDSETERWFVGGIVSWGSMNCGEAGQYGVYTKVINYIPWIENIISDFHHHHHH
- protocol.details: cell-based or functional assay
Bridge positions count the residues as written; N and C are the ends. Square brackets hold non-standard residues; d marks the D form. Ends that are not written are not given here. Oic = O=C(O)[C@@H]1C[C@@H]2CCCC[C@@H]2N1; tBuAla = CC(C)(C)C[C@H](N)C(=O)O; NMeC = CN[C@@H](CS)C(=O)O; Sar = CNCC(=O)O

>  <binder>
[Sar]ICSRSLPPI[NMeC]IPD-OH (disulfide 3-11; N-terminus assumed; SMILES CC[C@H](C)[C@H](NC(=O)CNC)C(=O)N[C@H]1CSSC[C@@H](C(=O)N[C@H](C(=O)N2CCC[C@H]2C(=O)N[C@@H](CC(=O)O)C(=O)O)[C@@H](C)CC)N(C)C(=O)[C@H]([C@@H](C)CC)NC(=O)[C@@H]2CCCN2C(=O)[C@@H]2CCCN2C(=O)[C@H](CC(C)C)NC(=O)[C@H](CO)NC(=O)[C@H](CCCNC(=N)N)NC(=O)[C@H](CO)NC1=O) [((N-Me)G)-IC+SRSLPPI-((N-Me)C)+IPD-OH]

>  <human MASP2 IC50>
1.7 µM

$$$$
>  <binder>
AICSRS[tBuAla]P[Oic]I[NMeC]IPD-OH (disulfide 3-11; also: HCl salt) [AIC+SRS-((tBu)A)-P-(Oic)-I-((N-Me)C)+IPD-OH (HCl salt)]

>  <human MASP2 IC50>
0.21 µM

$$$$
